Ref: ChEMBL document CHEMBL4513216

# reported INHIBITION; entries follow
tested on: Plasmodium berghei; assay: Screen against P. berghei liver stage (PbLuc), transformed with Luciferase, at 10uM; assay type: functional, HepG2; details: tested at 10 uM
Hit rate of the full screen: of about 69,000 compounds, about 8,600 (12%) showed an effect of 50% or more. Many of the other results were omitted from the sample, so strong results are more common in it than they were.

Examples with answers:
compound="Cc1c(C)n(CC(O)CN2CCC(C)CC2)c2c(Cl)cccc12 (stereo unspecified)" endpoint_name=INHIBITION readout_value=37.3%
compound="CC(=O)NCc1ccc(C(=O)N2CCCC2c2cnn(C)c2)o1 (stereo unspecified)" endpoint_name=INHIBITION readout_value=-1.88%
compound="Cn1cc(C2CCCN2C(=O)c2ccc(Br)o2)cn1 (stereo unspecified)" endpoint_name=INHIBITION readout_value=12.2%

In the following, a different compound is considered.
Summary for this compound, CCN(CC)Cc1ccc(C(=O)N2CCCC2c2cnn(C)c2)o1 (stereo unspecified) : INHIBITION is 57%
